src = PubChem BioAssay (NCATS)

assay.procedure: qHTS of pediatric cancer cell lines to identify multiple opportunities for drug repurposing: Primary screen for SJ-GBM2 cells (AID 1347091)
conditions.used: SJ-GBM2 viability, CellTiter-Glo luminescence, 48 h; series mostly up to 46 µM
Results filed as inconclusive are left out. Calls of active or inactive are those of the source. Calls follow the shape of the dose curve; as a rule, active = well fitted cell-killing curve with a large enough effect; inconclusive = small, poorly fitted or top-dose-only effect; inactive = no such curve, though single readings can be large or run the other way.
Mark one answer only. Choices: active, inactive

Take a look at these entries with their results.
# chemical.string, category
measured = [
    ("CCN(CC)CCOC(=O)C1(c2ccccc2)CCCC1", "inactive"),
    ("Nc1nc(Cl)nc2c1ncn2[C@@H]1O[C@H](CO)[C@@H](O)[C@@H]1F", "active"),
    ("c1ccc(CC2=NCCN2)cc1", "inactive"),
    ("CCCN(CCc1cccs1)[C@H]1CCc2c(O)cccc2C1", "inactive"),
    ("CCOC(=O)Nc1ccc2c(c1)N(C(=O)CCN1CCOCC1)c1ccccc1S2", "inactive"),
]

Query: Hi, sorry to bother you, what did the test record for "COc1ccc(CCN(C)CCCN2CCc3cc(OC)c(OC)cc3CC2=O)cc1OC" ?
Result: inactive

Query: Please share the test call associated with "O=S(=O)(O)c1ccc(O)cc1" .
Result: inactive

Query: Outcome? "CCOc1ccccc1OCCN[C@H](C)Cc1ccc(OC)c(S(N)(=O)=O)c1"
Result: inactive
